Measured values drawn from patent US20250144213A1 for this set.

- System: T1, BCMA-Fc recombinant protein (human, UniProt Q02223 1-54)
- T1 construct: Soluble staining reagent, 5 µg/ml; not shown: Fc part
- T1 sequence (looked up): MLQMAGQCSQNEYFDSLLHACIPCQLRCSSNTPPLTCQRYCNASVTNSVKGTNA
- Method Description: flow cytometry: lentivirally transduced CAR-T cells stained with 5 µg/ml BCMA-Fc, detected with anti-human IgG Fc (FIG. 17B)
Readout Label: binding result

anti-BCMA scFv BCMA27 (scFv, also called BCMA27 scFv; BCMA27 CAR) scFv: QSALTQPPSASGSPGQSVTISCTGSRSNVGSYNDVSWYQQHPGKAPKLIIYDVDKRPAGVPDRFSGSKSGNTASLTVSGLQAEDDADYYCSSYGGTYSLFVFGTGTELTVLGGGGSGGGGSGGGGSEVQLVESGGDLVQPGGSLRLSCAASGFTFSSYGMHWVRQAPGKGLEWVAVISYDGSNKYYADSVKGRFTISRDNSKNTLYLQMNSLRAEDTAVYYCAKEEFYGDSSYGMDVWGQGTTVTVSS : binds
anti-BCMA scFv BCMA34 (scFv, also called BCMA34 scFv; BCMA34 CAR) scFv: QPGLTQPPSVSKGLRQTATLTCTGNSNNVGNQGAAWLQQHQGHPPKLLSYRNNNRPSGISERFSASRSGNTASLTITGLQPEDEADYYCSAWDSSLSARVFGGGTKLTVLGGGGSGGGGSGGGGSQVQLVQSGAEVKKPGASVKVSCKTSGYTFSNPFVHWVRQAPGQGLEWVGIINLSGGDTLYAQKFQGGVTMTRDTSTNTAYMELTSLTFEDTAVYYCARDQAGFGDSAYWGQGTLVTVSS : binds
anti-BCMA scFv BCMA24 (scFv, also called BCMA24 scFv; BCMA24 CAR) scFv: QSVLTQPPSASGTPGQRVTISCSGSSSNIGSYSVNWYQQIPGTAPKLLIYSNNQRPSGVPDRFSGSKSGTSASLAISGLQSEDEADYSCAAWDDSLNGVVFGGGTKLTVLGGGGSGGGGSGGGGSQVQLVQSGAEVKKPGSSVKVSCKASGGTFSSYAISWVRQAPGQGLEWMGGIIPIFGTANYAQKFQGRVTITADESTSTAYMELSSLRSEDTAVYYCARGSFYSSVNVWGQGTTVTVSS : binds
